# assay: Pharmacokinetic study in male SD rats
# Format: in vivo
# cond: Sprague-Dawley (SD), rat, po, p.o. 10 mg/kg, plasma
observable: Cmax
Answer format reminder: number followed by unit.

Just so you know, measured Cmax for N#Cc1ccc(-c2csc(N(CCCCCCC(=O)N3CCN(c4cccc5c4C(=O)N(C4CCC(=O)NC4=O)C5=O)CC3)N=C3CCCC3)n2)cc1 (stereo not shown) came out at 0.0139 µg/mL

----------
Give pIC50 for every item shown.
# System: SiHa cells
# assay: SiHa cell viability IC50 (CCK-8)
# Type: cell-based, human
# cond: Homo sapiens; parental SiHa cells, 36 h; read-out: IC50, inhibition of SiHa cell viability
Lab note: report pIC50 as minus log10 of the concentration in molar units, number only.

Just so you know, measured pIC50 for N#Cc1ccc(-c2csc(N(CCCCCCC(=O)N3CCN(c4cccc5c4C(=O)N(C4CCC(=O)NC4=O)C5=O)CC3)N=C3CCCC3)n2)cc1 (centres unmarked) came out at 5.11

Just so you know, measured pIC50 for N#Cc1ccc(-c2csc(NN=C3CCCC3)n2)cc1 [Remodelin, reference compound] came out at 4.97

----------
# assay: Pharmacokinetic study in male SD rats
# Type: in vivo
# cond: Sprague-Dawley (SD), rat, plasma, oral, p.o. 10 mg/kg vs i.v. 2 mg/kg, read-out: oral bioavailability (F)
observable: bioavailability (%)
Give the value, in units of %, as a plain number.

Just so you know, measured bioavailability for N#Cc1ccc(-c2csc(N(CCCCCCC(=O)N3CCN(c4cccc5c4C(=O)N(C4CCC(=O)NC4=O)C5=O)CC3)N=C3CCCC3)n2)cc1 (stereo not shown) came out at 1.35

----------
# assay: Pharmacokinetic study in male SD rats
# Assay type: in vivo
# cond: Sprague-Dawley (SD), rat, plasma, iv, i.v. 2 mg/kg, read-out: MRT(0−∞)
# Procedure: Male SD rats (180–220 g) were purchased from Beijing Vital River Laboratory Animal Technology Co., Ltd. Blood samples (0.25 mL) were collected from the tail vein at 0.0833, 0.25, 0.5, 1, 2, 4, 6, 8, and 24 h after oral (10 mg/kg) or intravenous (2 mg/kg) administration of compound NP1192. Drug concentrations in the samples were determined by using liquid chromatography–mass spectrometry (LC-MS/MS). […]
observable: MRT inf (min)
Give the value, in units of min, as a plain number.

Just so you know, measured MRT inf for N#Cc1ccc(-c2csc(N(CCCCCCC(=O)N3CCN(c4cccc5c4C(=O)N(C4CCC(=O)NC4=O)C5=O)CC3)N=C3CCCC3)n2)cc1 (stereo not shown) came out at 34.2

----------
# assay: Pharmacokinetic study in male SD rats
# Assay type: in vivo
# cond: Sprague-Dawley (SD), rat, plasma, po, p.o. 10 mg/kg
observable: AUC(0-inf) (µg·h/mL)
Give the value, in units of µg·h/mL, as a plain number.

Just so you know, measured AUC(0-inf) for N#Cc1ccc(-c2csc(N(CCCCCCC(=O)N3CCN(c4cccc5c4C(=O)N(C4CCC(=O)NC4=O)C5=O)CC3)N=C3CCCC3)n2)cc1 (stereo not shown) [NP1192] came out at 0.0295

----------
# assay: Acute toxicity in C57BL/6J mice
# cond: male, mouse, in vivo, ip; C57BL/6J mice, intraperitoneal, 14 days survival
observable: LD50 at 14 days

Just so you know, measured LD50 at 14 days for N#Cc1ccc(-c2csc(N(CCCCCCC(=O)N3CCN(c4cccc5c4C(=O)N(C4CCC(=O)NC4=O)C5=O)CC3)N=C3CCCC3)n2)cc1 (stereo not shown) came out at > 1000 mg/kg

----------
# assay: Pharmacokinetic study in male SD rats
# Assay type: in vivo
# cond: Sprague-Dawley (SD), rat, plasma, po, p.o. 10 mg/kg
observable: half-life (h)
Give the value, in units of h, as a plain number.

Just so you know, measured half-life for N#Cc1ccc(-c2csc(N(CCCCCCC(=O)N3CCN(c4cccc5c4C(=O)N(C4CCC(=O)NC4=O)C5=O)CC3)N=C3CCCC3)n2)cc1 (stereo not shown) [NP1192] came out at 2.4

----------
# Tested on: glioblastoma (GBM) patient-derived organoids
# assay: ATP-based viability assay in patient-derived organoids, GBM
# Type: cell-based
# cond: Homo sapiens, GBM PDOs, read-out: IC50, organoid viability
observable: IC50 (µM)
Give the value, in units of µM, as a plain number.

glioblastoma (GBM) patient-derived organoids assay, molecule N#Cc1ccc(-c2csc(N(CCCCCCC(=O)N3CCN(c4cccc5c4C(=O)N(C4CCC(=O)NC4=O)C5=O)CC3)N=C3CCCC3)n2)cc1 (stereo not shown) , recorded IC50 = 13.8

----------
# assay: Pharmacokinetic study in male SD rats
# Format: in vivo
# cond: Sprague-Dawley (SD), rat, plasma, po, p.o. 10 mg/kg, read-out: MRT(0−∞)
observable: MRT inf (h)
Give the value, in units of h, as a plain number.

Just so you know, measured MRT inf for N#Cc1ccc(-c2csc(N(CCCCCCC(=O)N3CCN(c4cccc5c4C(=O)N(C4CCC(=O)NC4=O)C5=O)CC3)N=C3CCCC3)n2)cc1 (stereo not shown) came out at 2.85

----------
# assay: Pharmacokinetic study in male SD rats
# Type: in vivo
# cond: Sprague-Dawley (SD), rat, plasma, iv, i.v. 2 mg/kg
observable: Tmax
Answer format reminder: number followed by unit.

Just so you know, measured Tmax for N#Cc1ccc(-c2csc(N(CCCCCCC(=O)N3CCN(c4cccc5c4C(=O)N(C4CCC(=O)NC4=O)C5=O)CC3)N=C3CCCC3)n2)cc1 (stereo not shown) [NP1192] came out at 5 min

Measured values drawn from paper PMC12670317 for this set.
